These data points were gathered from patent US9340577B2.

Biological target: A31 (A*3101) (Homo sapiens, UniProt P04439, A270S/D185E/E176V/E277Q/F33T/G231S/G80R/H175R/I121M/I218V/I322F/K168Q/L300P/L318F/M331R/P217A/Q94H/R138Q/T323A/T345S/T97I/V358M)
Test: biochemical
Format: binding
No end group written: not given here.
One threshold, 500 nM, splits the recorded IC50 values: lower ones are true (1), equal or higher ones are false (0).

chain_sequence="KTTPVVHLK [Peptide 1589.37]" answer_label="true (1)"
chain_sequence="ALTALIKPKK [Peptide 9017.0229]" answer_label="false (0)"
chain_sequence="TVSATQIVR [Peptide 1589.26]" answer_label="true (1)"
chain_sequence="QVNCKGIYY [Peptide 88.0408]" answer_label="false (0)"
chain_sequence="ITYSDETQR [Peptide 88.0429]" answer_label="false (0)"

Does the reported IC50 of GTMCRHYKR [Peptide 1587.34] stay below 500 nM?
true (1)

hey, is IC50 for VTIYYGVPVWK [Peptide 1525.03] lower than 500 nM or not?
false (0)

* * *

Target: A*0206 (Homo sapiens, UniProt P04439, D140Y/D185E/D98H/E176V/E277Q/F33Y/G131W/G231S/I119V/I121R/I166T/I218V/L300P/L318F/N151K/N90K/P208A/P217A/Q86G/Q94H/R138H/R169H/T345S)
Assay: biochemical
Type: binding
No end group written: not given here.
# reported IC50; entries follow
Answer in µM, number only, no unit symbol.

Known results for sequences:
chain_sequence="KLMSQLLNI [Peptide 1578.29]" property_label=IC50 measured_result=0.056
chain_sequence="CQAHNSDTGV [Peptide 9013.0190]" property_label=IC50 measured_result=1.56
chain_sequence="FLQGCIISYA [Peptide 1578.18]" property_label=IC50 measured_result=0.241

# get_value(readout='IC50', item= ILQNDTGFYT [Peptide 9013.0147] )
11.1

* * *

Target: DR7 (DRB1*0701) (Homo sapiens, UniProt P01903+P01911, A100R/A102G/A103Q/D57E/D86V/E43K/F76Y/K127E/L162R/M171V/P40G/Q125H/Q99D/R33Q/R42Y/R54Q/S133A/S66F/T210M/V115G/Y107V/Y59L/Y89S)
Assay: biochemical
Type: binding
No end group written: not given here.
Listed here are sequences together with their documented IC50.
Express the result in nM but write the number alone.

These solved cases illustrate the format of a correct answer.
chain_sequence="SDEISFAGIVTKLPT [Peptide 1601.45]" measured_result=901
chain_sequence="VTVFTFPHAFPFDKN [Peptide 89.0092]" measured_result=5.5
chain_sequence="HQVVPSLVASKTKAF [Peptide 90.0023]" measured_result=2730

Here is another sequence to look at.
Quick one: IC50 of NGWFYVEAVIDRQTG [Peptide 90.0062] ?
157

* * *

Target: DRB1*1201 (Homo sapiens, UniProt P01903+P01911, A100R/A169T/D57E/D86V/F55L/H45Y/K41T/L162R/M171V/P40S/Q125H/Q178H/Q39Y/Q99D/R42G/S66L/T262R/V114A/V67L/W38E/Y59H/Y61H/Y89S)
Assay: biochemical
Format: binding
No end group written: not given here.
property.label: IC50 (µM)
Unit µM implied. Number only.

Query: IC50; subject: DNDVMDDSEIAYKYA [Peptide 90.0069]
12.7

# get_value(readout='IC50', item= PRSLQCVSLHLLSND [Peptide 68.0016] )
3.86

Consider the sequence ELQMALKGLAQSKYN [Peptide 90.0005] and give its measured IC50.
0.041

* * *

Each record here notes measured pIC50.
Target: HLA-A3.2 (A*0301) (Homo sapiens)
Test: biochemical
Assay type: binding
No end group written: not given here.
Just the number, please; pIC50 means minus log10 of the concentration in mol/L.

Worked set:
chain_sequence="SVRKLVEDR [Peptide 9017.0105]" measured_result=5.29
chain_sequence="ALTALITPKK [Peptide 9017.0230]" measured_result=7.36
chain_sequence="KSFLKGTPK [Peptide 88.0344]" measured_result=7.80

# query: pIC50 of entry AQVLHVLKRK [Peptide 88.0141]
6.79

Sample AILGHIVIPR [Peptide 9017.0224] — what was its pIC50?
7.51

GET /values?readout=pIC50&item= KQLQHTPSPY [Peptide 88.0204]
6.93

* * *

Molecular target: A*0203 (Homo sapiens, UniProt P04439, A173T/D140Y/D185E/D98H/E277Q/G131W/G231S/I119V/I121R/I166T/I218V/L180W/L300P/L318F/N151K/N90K/P208A/P217A/Q86G/Q94H/R138H/R169H/T345S)
Experiment: biochemical
Assay type: binding
No end group written: not given here.
Measured log10 IC50 by item
Answers are given as log10 of IC50 in nM.

chain_sequence="ILIGVLVGVAL [Peptide 9013.0347]" property_label="log10 IC50" measured_result=3.00

// log10 IC50 lookup, key: ALAEAMSQA [Peptide 1539.04]
1.30

Recorded log10 IC50 for ALYSWLIDGNI [Peptide 9013.0315] , please?
0.85

Recorded log10 IC50 of RLYVCGIQNSV [Peptide 9013.0335] , please.
1.38

Entry WLRLLLTASLL [Peptide 9013.0254] has what log10 IC50?
1.08

Item YTNWSEIYI [Peptide 1578.56] has what recorded log10 IC50?
1.67

* * *

Measured IC50, listed per entry for reference.
Biological target: DRB1*1101 (Homo sapiens, UniProt P01903+P01911, A100R/A169T/A87E/I96F/K41T/L162R/M171V/P40S/Q125H/Q178H/Q39Y/Q99D/R42S/S66Y/T262R/V115G/W38E)
Sequence (P01903 26-254 limits assumed, other chains not shown): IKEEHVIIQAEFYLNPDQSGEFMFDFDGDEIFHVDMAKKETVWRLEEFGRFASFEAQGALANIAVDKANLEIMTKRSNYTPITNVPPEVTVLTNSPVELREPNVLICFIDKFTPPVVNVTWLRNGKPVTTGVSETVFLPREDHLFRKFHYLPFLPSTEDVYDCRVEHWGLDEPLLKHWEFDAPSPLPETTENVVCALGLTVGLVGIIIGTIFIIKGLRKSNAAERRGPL
Assay: biochemical
Conditions: Binding affinity DRB1 *1101
No end group written: not given here.

chain_sequence="CWTYFDNYMRNALDG [Peptide 89.0090]" property_label=IC50 measured_result="> 20 µM"

Requested field: IC50. Item: GQRVPVSHSFPHPLY [Peptide 68.0005]
> 20 µM

What does the data say about its IC50? Entry: TNKFSGYPLYHSVYE [Peptide 68.0116]
> 20 µM

Please give the measured IC50 for this sequence: LHLLSNDMCARAYSE [Peptide 68.0140]
> 20 µM

Form field: reported IC50 of KIGMIDDVTPISWTY [Peptide 90.0087]
> 20 µM

Field request: IC50 | item: ENSIQADTEAARALF [Peptide 90.0078]
> 20 µM

Fill blank: measured IC50 of the sequence ITHIGHQVVPPMAVS [Peptide 90.0010] is ____.
> 20 µM

* * *

System: HLA-A24
Format: binding, human
property.label: binding to HLA-A24 (column 6; no allele head shown for these rows)
Returns: the value as a bare number; no unit string appended.

chain_sequence=EIWEELSVMEV measured_result=0
chain_sequence=YLEYGRCRTV measured_result=0
chain_sequence=VADLVGFLL measured_result=0.0007

Name the reported binding to HLA-A24 (column 6; no allele head shown for these rows) value associated with the sequence SLQLVFGI
0

Find the recorded binding to HLA-A24 (column 6; no allele head shown for these rows) belonging to QIMPKTGFLII and report it.
0.0030

* * *

Biological target: DRB1*1302 (Homo sapiens, UniProt P01903+P01911, A100E/A169T/K41T/L162R/M171V/P40S/Q125H/Q178H/Q39Y/Q99D/R42S/S66N/T262R/V115G/W38E/Y61H)
Test: biochemical
Type: binding
No end group written: not given here.
In this section, each of the sequences is paired with its reported IC50.
# value in nM; strip the unit string

Example results:
chain_sequence="LNTVKIPPTVQISTG [Peptide 90.0028]" property_label=IC50 units_of_measure=nM measured_result=778
chain_sequence="VDFIVNDNDYLTQAE [Peptide 90.0031]" property_label=IC50 units_of_measure=nM measured_result=204
chain_sequence="RLTVAKLMSNLLSIP [Peptide 89.0065]" property_label=IC50 units_of_measure=nM measured_result=7.2
chain_sequence="ISEVYGDTPEWIQRQ [Peptide 90.0035]" property_label=IC50 units_of_measure=nM measured_result=6.9
chain_sequence="SWGMVMLMLVRFKCA [Peptide 89.0044]" property_label=IC50 units_of_measure=nM measured_result=975

Attention now turns to another entry.
Endpoint output: IC50 of NGWFYVEAVIDRQTG [Peptide 90.0062] . Value?
4870

* * *

Molecular target: A*6801 (Homo sapiens, UniProt P04439, A269V/D185E/E176V/E277Q/E87N/F33Y/G231S/I121M/I166T/I218V/L180W/L300P/L318F/N151K/P208A/P217A/Q86R/R169H/T345S)
Assay: biochemical
Type: binding
No end group written: not given here.
property.label: pIC50
Units for pIC50: none; it is -log10 of a concentration expressed in mol/L.

chain_sequence="ILTAFNSSHK [Peptide 1589.03]" property_label=pIC50 measured_result=5.19
chain_sequence="QVVPPINISK [Peptide 1589.23]" property_label=pIC50 measured_result=7.85
chain_sequence="VTVYYGVPIWK [Peptide 1525.02]" property_label=pIC50 measured_result=8.30
chain_sequence="MVIEPPKLR [Peptide 88.0360]" property_label=pIC50 measured_result=7.89
chain_sequence="IVGWPAVRER [Peptide 9017.0186]" property_label=pIC50 measured_result=7.09

Bench note: what pIC50 did TILWKDIFHR [Peptide 9012.0223] show?
7.59

Which value of pIC50 has been reported for SVICFVNSK [Peptide 1587.15] in the records?
8.07

What measured pIC50 goes with KQEAVRHFPR [Peptide 9017.0239] ?
5.17
